Where do the numbers come from? From PubChem BioAssay (NCI).

- Test system: M14 melanoma
- assay procedure: NCI tumour cell line growth inhibition, 48 h; in the data active = GI50 below about 0.43 µM; inactive = the rest
One label from this list, please: active, inactive

**Query** Recorded test call requested for CCCN1C(=O)/C(=C/c2ccc(O)cc2)SC1=Nc1ccccc1
**Result** inactive

**Query** Recorded test call requested for COC1(OC)C[C@H](C)[C@@]23O[C@]24c2cc(O)c5c(c2N[C@H]3C#C/C=C\C#C[C@]14O)C(=O)c1ccccc1C5=O
**Result** active

**Query** Recorded test call requested for CCC[C@H](Nc1nc(-c2ccc(NC(=O)NCC)c(OC)c2)ncc1C)c1cccnc1
**Result** active

**Query** Recorded test call requested for COc1cc2c(cc1OCCCCCN1CCN(c3cc(=O)oc4c(C)c(OC)ccc34)CC1)N=C[C@@H]1CCCN1C2=O
**Result** active

**Query** Recorded test call requested for N#C/C(=C\c1ccc(Cl)cc1)n1nnc2cc(F)c(F)cc21
**Result** inactive
